Each item that follows carries a reported MIC Gram+ MRSA ATCC 43300.
System: MRSA ATCC 43300
Assay type: cell-based, Staphylococcus aureus
cond: ATCC 43300
Non-standard residues stand in square brackets, D forms with d. Residues, ends and D or L forms follow the SMILES beside them. *: point of attachment. Octanoyl = CCCCCCCC(=O)*
property-label: MIC Gram+ MRSA ATCC 43300 (µM)

• CCCCCCCC(=O)N[C@@H](Cc1ccccc1)C(=O)N[C@@H](CC(C)C)C(=O)N[C@@H](CO)C(=O)N[C@@H](CCCNC(=N)N)C(=O)N[C@H](C(=O)N[C@@H](Cc1ccccc1)C(N)=O)[C@@H](C)CC [OA-SHf] (Octanoyl-FLSRIF-NH2) = 50
• CC[C@H](C)[C@H](NC(=O)[C@H](CCCNC(=N)N)NC(=O)[C@H](CCCNC(=N)N)NC(=O)[C@H](CC(C)C)NC(=O)[C@H](Cc1ccccc1)NC(=O)[C@H](Cc1ccccc1)NC(=O)[C@H](Cc1ccccc1)NC(=O)[C@H](Cc1ccccc1)NC(=O)[C@@H](N)Cc1ccccc1)C(=O)N[C@@H](Cc1ccccc1)C(N)=O [FF-SHf(R^5)] (H-FFFFFLRRIF-NH2; N-terminus assumed) = 1.57
• CC[C@H](C)[C@H](NC(=O)[C@H](CCCNC(=N)N)NC(=O)[C@H](CO)NC(=O)[C@H](CC(C)C)NC(=O)[C@H](Cc1ccccc1)NC(=O)[C@H](Cc1ccccc1)NC(=O)[C@H](Cc1ccccc1)NC(=O)[C@H](Cc1ccc(O)cc1)NC(=O)[C@@H](N)Cc1ccc(O)cc1)C(=O)N[C@@H](Cc1ccccc1)C(N)=O [YY-SHf] (H-YYFFFLSRIF-NH2; N-terminus assumed) = 6.25
• CC[C@H](C)[C@H](NC(=O)[C@H](CCCNC(=N)N)NC(=O)[C@H](CCCNC(=N)N)NC(=O)[C@H](CC(C)C)NC(=O)[C@H](Cc1ccccc1)NC(=O)[C@H](Cc1ccccc1)NC(=O)[C@H](Cc1ccccc1)NC(=O)[C@@H](N)Cc1ccc(O)cc1)C(=O)N[C@@H](Cc1ccccc1)C(N)=O [Y-SHf(R^5)] (H-YFFFLRRIF-NH2; N-terminus assumed) = 3.13
• CC[C@H](C)[C@H](NC(=O)[C@@H](CCCNC(=N)N)NC(=O)[C@H](CCCNC(=N)N)NC(=O)[C@H](CC(C)C)NC(=O)[C@H](Cc1ccccc1)NC(=O)[C@H](Cc1ccccc1)NC(=O)[C@H](Cc1ccccc1)NC(=O)[C@@H](N)Cc1ccccc1)C(=O)N[C@@H](Cc1ccccc1)C(N)=O [F-SHf(R^5,dR^6)] (H-FFFFLR[dR]IF-NH2; N-terminus assumed) = 3.13

* * *

assay: MTT cytotoxicity assay
Format: cell-based, human
cond: human, HEK293T cells, OD450, cytotoxicity (Fig 2a), replicates
Residues, ends and D or L forms follow the SMILES beside them.
property-label: viability at 72 h, 6.25 µM

* CC[C@H](C)[C@H](NC(=O)[C@H](CCCNC(=N)N)NC(=O)[C@H](CCCNC(=N)N)NC(=O)[C@H](CC(C)C)NC(=O)[C@H](Cc1ccccc1)NC(=O)[C@H](Cc1ccccc1)NC(=O)[C@H](Cc1ccccc1)NC(=O)[C@@H](N)Cc1ccccc1)C(=O)N[C@@H](Cc1ccccc1)C(=O)N[C@@H](CCCNC(=N)N)C(=O)N[C@@H](CCCNC(=N)N)C(N)=O [F-SHf(R^5)-RR] (H-FFFFLRRIFRR-NH2; N-terminus assumed) | 3.98%
* CC[C@H](C)[C@H](NC(=O)[C@H](CCCNC(=N)N)NC(=O)[C@H](CCCNC(=N)N)NC(=O)[C@H](CC(C)C)NC(=O)[C@H](Cc1ccccc1)NC(=O)[C@H](Cc1ccccc1)NC(=O)[C@H](Cc1ccccc1)NC(=O)[C@@H](N)Cc1ccccc1)C(=O)N[C@@H](Cc1ccccc1)C(=O)N[C@@H](CCCNC(=N)N)C(N)=O [F-SHf(R^5)-R] (H-FFFFLRRIFR-NH2; N-terminus assumed) | 4.46%
* CC[C@H](C)[C@H](NC(=O)[C@H](CCCNC(=N)N)NC(=O)[C@H](CCCNC(=N)N)NC(=O)[C@H](CC(C)C)NC(=O)[C@H](Cc1ccccc1)NC(=O)[C@@H](N)CCCNC(=N)N)C(=O)N[C@@H](Cc1ccccc1)C(=O)N[C@@H](CCCNC(=N)N)C(=O)N[C@@H](Cc1ccccc1)C(=O)N[C@@H](Cc1ccccc1)C(=O)N[C@@H](Cc1ccccc1)C(N)=O [HT4] (H-RFLRRIFRFFF-NH2) | 22.3%
